- procedure-text: Cmax in serum of human infected with methicillin-resistant Staphylococcus aureus HUSA 304 at 8 mg/kg/day, […]
- Assay type: ADME, organism-based
- Parameters: dose 8 mg/kg/day, route intraperitoneal
endpoint-label: Cmax (µg/mL)
The reply should be a number in µg/mL, with the unit left off.

Q: Need Cmax, item CCCCCCCCCC(=O)N[C@@H](Cc1c[nH]c2ccccc12)C(=O)N[C@H](CC(N)=O)C(=O)N[C@@H](CC(=O)O)C(=O)N[C@@H]1C(=O)NCC(=O)N[C@@H](CCCN)C(=O)N[C@@H](CC(=O)O)C(=O)N[C@H](C)C(=O)N[C@@H](CC(=O)O)C(=O)NCC(=O)N[C@H](CO)C(=O)N[C@@H]([C@H](C)CC(=O)O)C(=O)N[C@@H](CC(=O)c2ccccc2N)C(=O)O[C@@H]1C
Result: 106
